Data origin, for the record: patent US20220162215A1

METHOD: Tissue distribution, mouse
Assay type: in vivo
ASSAY CONTEXT: brain, dose 50 mg/kg, read-out: Brain 2 h
Method: Referring to Tables 8A-C below, an in vivo summary of EP-0035985 IV at 1 mg/kg (8A), PO 10 mg/kg (8B), and a tissue distribution, mouse (8C) is shown below.
READOUT KIND: concentration at 2 h (ng/g)

> print(dat)
                                   compound  reading
1  FC(F)(F)c1cc2c(NC3CCCc4ccccc43)ncnc2[nH]1 (stereo not shown) [Compound 15]     3980

====

System: HeLa MKYP cells
METHOD: Toxicity / cell death measured by DAPI staining (take-up)
Assay type: cell-based
ASSAY CONTEXT: Table 3; 50 μM
Classify as follows. Reported Toxicity (% positive for DAPI takeup @ 50 μM) greater than or equal to 20%: 1.0. Reported Toxicity (% positive for DAPI takeup @ 50 μM) below: 0.0.

> print(dat)
                                    compound  measurement.target  assigned.class
 1  O[C@@H]1Cc2ccccc2[C@H]1Nc1ncnc2[nH]c(C(F)(F)F)cc12     HeLa MKYP cells             0.0
 2  CN(C)[C@H]1CCc2ccccc2[C@@H]1Nc1ncnc2[nH]c(C(F)(F)F)cc12     HeLa MKYP cells             1.0
 3  O[C@H]1Cc2ccccc2[C@H]1Nc1ncnc2[nH]c(C(F)(F)F)cc12     HeLa MKYP cells             1.0
 4      c1ccc2c(c1)CC[C@H]2Nc1ncnc2[nH]cnc12     HeLa MKYP cells             0.0
 5              COc1ccccc1CNc1ncnc2nc[nH]c12     HeLa MKYP cells             0.0
 6     COc1cc(CNc2ncnc3[nH]c(C4CC4)nc23)ccn1     HeLa MKYP cells             0.0
 7  FC(F)(F)c1cc2c(NC3CCN(Cc4ccccc4)CC3)ncnc2[nH]1     HeLa MKYP cells             1.0
 8  CC(CNc1ncnc2[nH]cnc12)c1ccccc1 (centres unmarked)     HeLa MKYP cells             1.0
 9  OC[C@H](Nc1ncnc2[nH]c(C(F)(F)F)cc12)c1ccccc1     HeLa MKYP cells             1.0
10  CO[C@@H]1COc2ccccc2[C@H]1Nc1ncnc2[nH]c(C(F)(F)F)cc12     HeLa MKYP cells             0.0
11  CO[C@@H]1COc2ccccc2[C@@H]1Nc1ncnc2[nH]c(C(F)(F)F)cc12     HeLa MKYP cells             0.0
12     c1ccc2c(c1)CC[C@@H]2Nc1ncnc2[nH]cnc12     HeLa MKYP cells             0.0
13  Fc1cc(Cl)cc(CNc2ncnc3[nH]c(C(F)(F)F)cc23)c1     HeLa MKYP cells             0.0
14            Clc1cccc(CNc2ncnc3nc[nH]c23)c1     HeLa MKYP cells             0.0
15  FC(F)(F)c1cc2c(NC3CCCc4ncncc43)ncnc2[nH]1 (centres unmarked)     HeLa MKYP cells             0.0
16  COc1ccc(CNc2ncnc3[nH]c(C(F)(F)F)cc23)c(OC)c1     HeLa MKYP cells             1.0
17      FC(F)(F)c1cc2c(NCc3ccncn3)ncnc2[nH]1     HeLa MKYP cells             0.0
18       c1coc(CNc2ncnc3[nH]c(C4CCC4)nc23)c1     HeLa MKYP cells             0.0
19  FC(F)(F)c1cc2c(NC3CCOc4ccccc43)ncnc2[nH]1 (centres unmarked)     HeLa MKYP cells             1.0
20    COc1ncccc1CNc1ncnc2[nH]c(C(F)(F)F)cc12     HeLa MKYP cells             0.0
21  CN(C)C1CCC(CNc2ncnc3[nH]c(C(F)(F)F)cc23)CC1 (centres unmarked)     HeLa MKYP cells             0.0
22  OC[C@@H]1CCc2ccccc2[C@H]1Nc1ncnc2[nH]c(C(F)(F)F)cc12     HeLa MKYP cells             1.0
23  c1ccc2c(c1)CCC[C@H]2Nc1ncnc2[nH]c(C3CC3)cc12     HeLa MKYP cells             0.0
24  O[C@H]1Cc2ccccc2[C@@H]1Nc1ncnc2[nH]c(C(F)(F)F)cc12     HeLa MKYP cells             0.0
25      Cc1nc2c(N[C@H](C)c3ccccc3)ncnc2[nH]1     HeLa MKYP cells             0.0
26  CO[C@H]1COc2ccccc2[C@@H]1Nc1ncnc2[nH]c(C(F)(F)F)cc12 [Compound 104]     HeLa MKYP cells             0.0
27  CN1CC[C@H](Nc2ncnc3[nH]c(C(F)(F)F)cc23)c2ccccc21 [Compound 80]     HeLa MKYP cells             1.0
28  C[C@H]1CCc2ccccc2[C@H]1Nc1ncnc2[nH]c(C(F)(F)F)cc12 [Compound 85]     HeLa MKYP cells             1.0
29  CCC(Nc1ncnc2[nH]c(C(F)(F)F)cc12)c1cncnc1 (centres unmarked)     HeLa MKYP cells             0.0
30             CCCCNc1ncnc2[nH]c(C3CCC3)nc12     HeLa MKYP cells             0.0
31  COc1ccc2c(c1)[C@@H](Nc1ncnc3[nH]c(C(F)(F)F)cc13)CCC2 [Compound 87]     HeLa MKYP cells             0.0
32  Fc1ccc2c(c1)CCCC2Nc1ncnc2[nH]c(C(F)(F)F)cc12 (centres unmarked)     HeLa MKYP cells             1.0
33        CCCCNc1ncnc2[nH]c(C(F)(F)F)c(C)c12     HeLa MKYP cells             0.0
34  c1ccc2c(c1)OCC[C@H]2Nc1ncnc2[nH]c(C3CC3)cc12     HeLa MKYP cells             0.0
35        OC[C@H](Nc1ncnc2[nH]cnc12)c1ccccc1     HeLa MKYP cells             0.0
36  Fc1cccc(CNc2ncnc3[nH]c(C(F)(F)F)cc23)c1Cl     HeLa MKYP cells             0.0
37  C[C@@H](Nc1ncnc2[nH]c(C(F)(F)F)cc12)c1ccccc1     HeLa MKYP cells             1.0
